The measurements presented in this section are drawn from patent US20240062782A1.

# measurement-protocol: Measurement of two-photon absorption cross-section by the Z-scan method, light of 405 nm
# Type: physicochemical
# measurement-setup: light of wavelength 405 nm; titanium sapphire pulsed laser second harmonic, 80 fs, 1 kHz
Would you mind labelling by Two-photon absorption cross-section σ? At or over 400 GM is YES, under is NO.

Query: Textbook exercise: given the entry OC(C#Cc1ccc(N(c2ccc(C#CC(O)(c3ccccc3)c3ccccc3)cc2)c2ccc(C#CC(O)(c3ccccc3)c3ccccc3)cc2)cc1)(c1ccccc1)c1ccccc1 , state whether its Two-photon absorption cross-section σ is greater than or equal to 400 GM.
Reply: NO

Query: Textbook exercise: given the entry C(#Cc1c(C#Cc2ccccc2)c(C#Cc2ccccc2)c(C#Cc2ccccc2)c(C#Cc2ccccc2)c1C#Cc1ccccc1)c1ccccc1 , state whether its Two-photon absorption cross-section σ is greater than or equal to 400 GM.
Reply: YES

Query: Textbook exercise: given the entry COc1cc(-c2ccc(-c3ccc(C(=O)c4ccc(OCCOCCOC(C)=O)c(OCCOCCOC(C)=O)c4)cc3)c(OC)c2)ccc1-c1ccc(C(=O)c2ccc(OCCOCCOC(C)=O)c(OCCOCCOC(C)=O)c2)cc1 , state whether its Two-photon absorption cross-section σ is greater than or equal to 400 GM.
Reply: YES

Query: Textbook exercise: given the entry CCC1(CC)c2ccccc2-c2c1c1c(c3c2C(CC)(CC)c2ccccc2-3)C(CC)(CC)c2ccccc2-1 , state whether its Two-photon absorption cross-section σ is greater than or equal to 400 GM.
Reply: NO

Query: Textbook exercise: given the entry CC1(C)c2ccccc2-c2c1c1c(c3c2C(C)(C)c2ccccc2-3)C(C)(C)c2ccccc2-1 , state whether its Two-photon absorption cross-section σ is greater than or equal to 400 GM.
Reply: NO
